IC50 values, listed per item
target: human JMJD5 (Homo sapiens); experiment: SPE-MS JMJD5 inhibition assay (hydroxylation of RPS6 128–148 peptide); assay type: biochemical; details: supplementary CSV; read-out: IC50 JMJD5
Sequence (Q8N371 whole entry): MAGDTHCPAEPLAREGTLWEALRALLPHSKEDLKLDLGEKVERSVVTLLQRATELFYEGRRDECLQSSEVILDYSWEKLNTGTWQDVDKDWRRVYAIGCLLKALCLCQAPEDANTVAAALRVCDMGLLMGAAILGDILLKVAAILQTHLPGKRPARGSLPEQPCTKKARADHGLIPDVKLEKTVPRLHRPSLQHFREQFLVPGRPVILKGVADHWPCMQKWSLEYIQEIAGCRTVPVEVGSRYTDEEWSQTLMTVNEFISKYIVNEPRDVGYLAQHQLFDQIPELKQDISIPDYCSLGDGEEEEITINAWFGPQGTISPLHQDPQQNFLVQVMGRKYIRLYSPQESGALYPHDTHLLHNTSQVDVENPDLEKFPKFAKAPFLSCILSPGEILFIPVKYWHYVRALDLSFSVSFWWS

# molecule, IC50
rows = [
    ("COc1ccc(CNc2c(C(=O)O)ccnc2C(=O)O)cc1 [Compound 6]", "5.8 µM"),
    ("CC(Nc1cnccc1C(=O)O)c1ccccc1 (stereo not shown) [Compound 30]", "> 50 µM"),
    ("O=C(O)c1ccc(Nc2c(C(=O)O)ccnc2C(=O)O)cc1 [Compound 22]", "> 50 µM"),
]

Value of IC50 reported for the molecule O=C(O)c1ccccc1Nc1c(C(=O)O)ccnc1C(=O)O [Compound 24] is > 50 µM
